molecular target: human D2R long isoform (Homo sapiens); test: DiscoverX PathHunter β-arrestin recruitment assay, D2R
Sequence (P14416 whole entry, canonical isoform): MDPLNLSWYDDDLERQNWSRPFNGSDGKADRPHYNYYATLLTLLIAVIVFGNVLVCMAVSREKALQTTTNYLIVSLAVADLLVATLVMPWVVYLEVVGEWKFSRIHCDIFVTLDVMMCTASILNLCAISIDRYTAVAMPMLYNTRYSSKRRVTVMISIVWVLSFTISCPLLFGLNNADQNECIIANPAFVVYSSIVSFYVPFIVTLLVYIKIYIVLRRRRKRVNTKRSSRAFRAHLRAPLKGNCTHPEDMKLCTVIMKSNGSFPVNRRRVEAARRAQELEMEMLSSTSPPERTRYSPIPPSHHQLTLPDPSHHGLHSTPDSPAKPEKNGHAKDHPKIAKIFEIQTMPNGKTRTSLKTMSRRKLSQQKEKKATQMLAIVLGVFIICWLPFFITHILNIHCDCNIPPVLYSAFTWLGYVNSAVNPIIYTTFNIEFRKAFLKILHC
pIC50: −log10 of the molar value.
Listed compounds paired with reported pIC50
parameter.measured: pIC50

[[record]]
compound = "Cc1cccc(-n2cc(CN3CCN(c4ncccn4)CC3)nn2)c1 [Compound 16]"
experimental_result = 4.72

[[record]]
compound = "Cc1cccc(-n2cc(CN3CCC(c4ccccc4)CC3)nn2)c1 [Compound 14]"
experimental_result = 5.22

[[record]]
compound = "Cc1cccc(-n2cc(CN3CCN(c4cccc5ccccc45)CC3)nn2)c1 [Compound 18]"
experimental_result = 5.33

[[record]]
compound = "Cc1cccc(-n2cc(CN3CCN(c4ccccn4)CC3)nn2)c1 [Compound 15]"
experimental_result = 5.04


// provenance: paper PMC12910498
